Target: human kappa opioid receptor (Homo sapiens)
Construct: expressed in transfected cells; host or cells: Chinese hamster ovary cells (CHO-hKOR), membranes
Assay: biochemical
Assay type: binding
Overview of reported Ki across a group of compounds:

COMPOUND	STUDY SYSTEM	REPORTED RELATION	Ki, nM
COC(=O)[C@@H]1C[C@H](OC)C(=O)C2[C@@]1(C)CC[C@H]1C(=O)O[C@H](c3ccoc3)C[C@]21C (stereo partly drawn) [Compound 4, 2-methoxy-salvinorin B]	human kappa opioid receptor (Homo sapiens)	=	220
COC(=O)[C@@H]1C[C@H](OC(C)=O)C(=O)C2[C@@]1(C)CC[C@H]1C(=O)OC(C3CCOC3)C[C@]21C (stereo partly drawn) [Compound 62]	human kappa opioid receptor (Homo sapiens)	=	19.3
CC(=O)OC1CC(C(=O)NC(C)C(=O)OCc2ccccc2)C2(C)CCC3C(=O)OC(c4ccoc4)CC3(C)C2C1=O (stereo not drawn) [Compound 99]	human kappa opioid receptor (Homo sapiens)	>	10000

---

Target: human kappa opioid receptor (Homo sapiens, UniProt P41145)
Construct: expressed in transfected cells; host or cells: Chinese hamster ovary cells (CHO-hKOR), membranes
Sequence (P41145 whole entry): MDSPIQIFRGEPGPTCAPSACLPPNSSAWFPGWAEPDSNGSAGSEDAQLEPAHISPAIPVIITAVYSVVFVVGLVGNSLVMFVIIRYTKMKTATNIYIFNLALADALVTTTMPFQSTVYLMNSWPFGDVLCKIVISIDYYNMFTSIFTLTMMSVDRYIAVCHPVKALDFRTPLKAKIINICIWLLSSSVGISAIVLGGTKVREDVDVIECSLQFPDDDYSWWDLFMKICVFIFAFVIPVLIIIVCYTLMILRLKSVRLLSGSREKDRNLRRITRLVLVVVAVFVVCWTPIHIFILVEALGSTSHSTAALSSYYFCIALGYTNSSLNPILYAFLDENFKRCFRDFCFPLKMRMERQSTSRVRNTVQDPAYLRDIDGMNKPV
Assay: biochemical
Type: binding
PROPERTY LABEL: log10(Ki) (log10 of the value in nM)

COMPOUND	MEAS VALUE
CC(=O)OC1CC(C(=O)NC(C)C(=O)OCc2ccccc2)C2(C)CCC3C(=O)OC(c4ccoc4)CC3(C)C2C1=O (stereo not drawn) [Compound 98]	1.15
CCNC1CC(C(=O)OC)C2(C)CCC3C(=O)OC(c4ccoc4)CC3(C)C2C1=O (stereo not drawn) [Compound 209a, 2-(N-ethyl)-salvinorin]	1.81
COC(=O)[C@@H]1C[C@H](OCc2ccccc2)C(=O)C2[C@@]1(C)CC[C@H]1C(=O)O[C@H](c3ccoc3)C[C@]21C (stereo partly drawn)	1.88
COC(=O)[C@@H]1C[C@H](OC(N)=O)C(=O)C2[C@@]1(C)CC[C@H]1C(=O)O[C@H](c3ccoc3)C[C@]21C (stereo partly drawn) [Compound 9, 2-(O-formamide)-salvinorin B]	0.51
CCC(=O)N(C)C1CC(C(=O)OC)C2(C)CCC3C(=O)OC(c4ccoc4)CC3(C)C2C1=O (stereo not drawn) [Compound 215a, 2-(N-methylpropionamide)-salvinorin]	0.20

---

Overview of reported Ki across a group of compounds:
Target: human kappa opioid receptor (Homo sapiens)
Construct: expressed in transfected cells; host or cells: Chinese hamster ovary cells (CHO-hKOR), membranes
Test: biochemical
Format: binding
Details: read-out: Ki

COMPOUND	STUDY SYSTEM	Ki
CNC(=O)[C@@H]1C[C@H](OC(C)=O)C(=O)[C@H]2[C@@]1(C)CC[C@H]1C(=O)O[C@H](c3ccoc3)C[C@]21C [Compound 219, C(4)-N-methylamide salvinorin A]	human kappa opioid receptor (Homo sapiens)	> 1 µM
CNCC1CC(OC(C)=O)C(=O)C2C1(C)CCC1C(=O)OC(c3ccoc3)CC12C (stereo not drawn) [C8-epi-compound 224]	human kappa opioid receptor (Homo sapiens)	> 10 µM
COC(=O)C1CC(NC(C)=O)C(=O)C2C1(C)CCC1C(=O)OC(c3ccoc3)CC12C (stereo not drawn) [Compound 212b, 2-epi-(acetamide)-salvinorin]	human kappa opioid receptor (Homo sapiens)	0.332 µM
CC(=O)OC1CC(CN(C)C)C2(C)CCC3C(=O)OC(c4ccoc4)CC3(C)C2C1=O (stereo not drawn) [C8-epi-compound 226]	human kappa opioid receptor (Homo sapiens)	> 10 µM
CCNCC1CC(OC(C)=O)C(=O)C2C1(C)CCC1C(=O)OC(c3ccoc3)CC12C (stereo not drawn) [C8-epi-compound 225]	human kappa opioid receptor (Homo sapiens)	> 10 µM
CNC(=O)C1CC(OC(C)=O)C(=O)C2C1(C)CCC1C(=O)OC(c3ccoc3)CC12C (stereo not drawn) [C8-epi-compound 219, 8-epi-C(4)-N-methylamide salvinorin A]	human kappa opioid receptor (Homo sapiens)	1.39 µM

Recorded values, source patent US20070213394A1.
